Data provenance: ChEMBL document CHEMBL3991601

Target: Serine/threonine-protein kinase 4 (Homo sapiens); note: in the data inactive means no Kd found up to 30 µM
Sequence (Q13043 whole entry): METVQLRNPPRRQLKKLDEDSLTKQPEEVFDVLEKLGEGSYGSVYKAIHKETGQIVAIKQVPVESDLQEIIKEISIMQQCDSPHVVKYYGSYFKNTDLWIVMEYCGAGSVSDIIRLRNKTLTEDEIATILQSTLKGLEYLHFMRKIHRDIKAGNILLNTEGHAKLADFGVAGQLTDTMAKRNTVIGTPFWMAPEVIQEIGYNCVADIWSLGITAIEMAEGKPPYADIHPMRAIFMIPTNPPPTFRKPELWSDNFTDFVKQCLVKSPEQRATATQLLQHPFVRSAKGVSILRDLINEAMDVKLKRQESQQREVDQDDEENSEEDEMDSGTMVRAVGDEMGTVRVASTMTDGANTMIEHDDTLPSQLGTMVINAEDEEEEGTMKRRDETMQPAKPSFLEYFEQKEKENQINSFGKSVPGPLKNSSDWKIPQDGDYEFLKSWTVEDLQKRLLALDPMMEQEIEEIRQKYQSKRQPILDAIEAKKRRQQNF
Calls of active or inactive are those of the source.
Give one outcome, nothing more. List: t = active, f = inactive

Worked set:
# fetch the recorded call for COc1cc(F)c(F)c(Nc2ccc(I)cc2F)c1NS(=O)(=O)C1(C[C@H](O)CO)CC1 [REFAMETINIB] here f

Item: NC[C@@](O)(c1ccc(Cl)cc1)c1ccc(-c2cn[nH]c2)cc1 [AT-13148] f

Item: c1cc(OCCN2CCCCC2)cc(-c2n[nH]c3ccc(-c4nc[nH]n4)cc23)c1 [CC-401] f

Item: C=CCN(/C=C1/C(=O)O[C@H](COC)[C@@]2(C)C1=C(O)C(=O)C1=C2[C@H](OC(C)=O)C[C@]2(C)C(=O)CC[C@@H]12)CC=C [SONOLISIB] f

Continuing:
# fetch the recorded call for C=CCn1c(=O)c2cnc(Nc3ccc(N4CCN(C)CC4)cc3)nc2n1-c1cccc(C(C)(C)O)n1 [ADAVOSERTIB] here f

Item: Cc1c(NC(=O)OC[C@@H]2COCCN2)cn2ncnc(Nc3ccc4c(cnn4Cc4cccc(F)c4)c3)c12 [AC-480] f

Item: CN(c1ncccc1CNc1nc(Nc2ccc3c(c2)CC(=O)N3)ncc1C(F)(F)F)S(C)(=O)=O [PF-00562271] t

Item: S=C(NCc1ccc2c(c1)OCO2)N1CCN(c2ncnc3c2oc2ccccc23)CC1 [AMUVATINIB] f

----------
Biological target: Serine/threonine-protein kinase TBK1 (Homo sapiens); note: in the data inactive means no Kd found up to 30 µM
Sequence (Q9UHD2 whole entry): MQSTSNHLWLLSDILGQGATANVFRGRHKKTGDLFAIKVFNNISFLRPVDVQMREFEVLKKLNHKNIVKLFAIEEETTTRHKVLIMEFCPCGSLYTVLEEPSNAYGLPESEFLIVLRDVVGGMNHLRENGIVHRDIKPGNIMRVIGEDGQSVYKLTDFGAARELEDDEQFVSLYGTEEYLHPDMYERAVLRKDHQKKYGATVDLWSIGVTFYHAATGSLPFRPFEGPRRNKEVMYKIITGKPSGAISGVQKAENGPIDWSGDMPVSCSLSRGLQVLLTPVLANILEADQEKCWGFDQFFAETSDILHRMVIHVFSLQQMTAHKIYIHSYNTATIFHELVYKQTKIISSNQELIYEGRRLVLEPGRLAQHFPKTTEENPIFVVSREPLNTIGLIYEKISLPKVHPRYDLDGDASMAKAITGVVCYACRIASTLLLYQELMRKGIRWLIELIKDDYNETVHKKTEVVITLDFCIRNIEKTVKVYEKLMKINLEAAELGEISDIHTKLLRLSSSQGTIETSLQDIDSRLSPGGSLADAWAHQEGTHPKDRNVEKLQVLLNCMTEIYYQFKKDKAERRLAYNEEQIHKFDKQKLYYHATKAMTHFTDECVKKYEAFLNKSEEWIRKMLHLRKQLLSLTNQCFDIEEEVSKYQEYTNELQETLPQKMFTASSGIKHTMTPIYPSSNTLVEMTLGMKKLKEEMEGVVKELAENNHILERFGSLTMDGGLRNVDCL
Activity calls are given as the source filed them.
Give one outcome, nothing more. List: t = active, f = inactive

Worked set:
# fetch the recorded call for COCCN1CCN(Cc2ccc(-c3n[nH]c4c3C(=O)c3c(NC(=O)NN5CCOCC5)cccc3-4)cc2)CC1 here t

Item: CNC(=O)c1cccc(-c2ccc3c(N4CCOC[C@@H]4C)nc(N4CCOC[C@@H]4C)nc3n2)c1 f

Item: COc1cc(Nc2ncc(F)c(Nc3ccc4c(n3)N(COP(=O)(O)O)C(=O)C(C)(C)O4)n2)cc(OC)c1OC f

Item: C[C@@H]1COC(Nc2ccc3ncnc(Nc4ccc(OCc5nccs5)c(Cl)c4)c3c2)=N1 f

Let us examine a further case.
# fetch the recorded call for NC[C@@](O)(c1ccc(Cl)cc1)c1ccc(-c2cn[nH]c2)cc1 here f

----------
Target: Tyrosine-protein kinase Lyn (Homo sapiens, UniProt P07948); note: in the data inactive means no Kd found up to 30 µM
Sequence (P07948 whole entry): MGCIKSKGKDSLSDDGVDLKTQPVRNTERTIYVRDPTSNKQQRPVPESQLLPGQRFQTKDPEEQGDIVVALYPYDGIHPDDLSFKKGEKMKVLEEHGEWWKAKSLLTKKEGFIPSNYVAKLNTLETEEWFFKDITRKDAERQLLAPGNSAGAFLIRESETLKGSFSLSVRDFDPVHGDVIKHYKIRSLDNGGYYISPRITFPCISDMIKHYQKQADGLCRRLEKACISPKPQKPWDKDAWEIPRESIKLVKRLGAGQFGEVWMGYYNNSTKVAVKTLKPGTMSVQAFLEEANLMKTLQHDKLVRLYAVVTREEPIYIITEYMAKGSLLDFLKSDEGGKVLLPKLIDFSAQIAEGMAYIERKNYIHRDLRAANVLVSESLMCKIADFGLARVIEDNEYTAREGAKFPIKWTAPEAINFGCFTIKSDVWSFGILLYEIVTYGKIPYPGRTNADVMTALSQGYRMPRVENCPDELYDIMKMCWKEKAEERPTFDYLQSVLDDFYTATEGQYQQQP
Active and inactive are the calls of the source.
Attribute measured: Kd

Use these answered entries as a reference point.
Bench note: what Kd did COc1cc(F)c(F)c(Nc2ccc(I)cc2F)c1NS(=O)(=O)C1(C[C@H](O)CO)CC1 show? > 30 µM (inactive)

Item: O[C@H]1CC[C@H](Nc2ncc3nc(Nc4c(F)cc(F)cc4F)n([C@H]4CCOC4)c3n2)CC1 > 30 µM (inactive)

Item: CCN1CCN(Cc2ccc(Nc3ncc(F)c(-c4cc(F)c5nc(C)n(C(C)C)c5c4)n3)nc2)CC1 > 30 µM (inactive)

Could you now consider this next compound?
Bench note: what Kd did CCc1cc2c(cc1N1CCC(N3CCOCC3)CC1)C(C)(C)c1[nH]c3cc(C#N)ccc3c1C2=O show? > 30 µM (inactive)

----------
Molecular target: Mitogen-activated protein kinase 10 (Homo sapiens, UniProt P53779); note: in the data inactive means no Kd found up to 30 µM
Sequence (P53779 whole entry): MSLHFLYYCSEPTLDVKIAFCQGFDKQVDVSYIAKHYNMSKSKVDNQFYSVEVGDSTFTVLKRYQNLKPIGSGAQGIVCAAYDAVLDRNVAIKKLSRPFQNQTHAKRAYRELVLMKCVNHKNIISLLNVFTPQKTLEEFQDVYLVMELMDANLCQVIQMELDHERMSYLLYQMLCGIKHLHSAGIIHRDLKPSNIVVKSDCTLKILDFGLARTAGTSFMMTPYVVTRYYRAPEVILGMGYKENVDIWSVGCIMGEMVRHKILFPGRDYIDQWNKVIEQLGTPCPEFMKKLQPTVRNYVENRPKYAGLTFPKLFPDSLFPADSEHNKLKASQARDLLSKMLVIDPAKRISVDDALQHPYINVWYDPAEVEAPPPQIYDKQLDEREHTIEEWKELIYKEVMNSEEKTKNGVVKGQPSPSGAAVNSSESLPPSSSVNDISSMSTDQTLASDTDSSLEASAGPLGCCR
Calls of active or inactive are those of the source.
Give one outcome, nothing more. List: class 1 for active, class 0 for inactive

# fetch the recorded call for Cc1ccc(C(=O)Nc2ccc(Oc3cc4cnn(C)c4cc3-c3cn[nH]c3)c(F)c2)c(=O)n1-c1ccc(F)cc1 [MERESTINIB] here class 0

Item: Cn1cc(-c2[nH]c3cc(NC(=O)[C@H](N)C4CCCCC4)cc4c3c2C=NNC4=O)cn1 class 0

Item: O=C(O)c1ccc2c(c1)nc(Nc1cccc(Cl)c1)c1ccncc12 [SILMITASERTIB] class 0

Item: Cc1c(NC(=O)OC[C@@H]2COCCN2)cn2ncnc(Nc3ccc4c(cnn4Cc4cccc(F)c4)c3)c12 [AC-480] class 0

Item: C[C@@H]1COC(Nc2ccc3ncnc(Nc4ccc(OCc5nccs5)c(Cl)c4)c3c2)=N1 [VARLITINIB] class 0

Item: O=S(=O)(c1cccc2c(O)nccc12)N1CCCNCC1 [HYDROXYFASUDIL] class 0

Item: CNC(=O)c1cc(COc2nnc(Nc3ccc(Cl)cc3)c3ccoc23)ccn1 [TELATINIB] class 0

Item: CC(C)(O)CC(=O)NCCn1ccc2ncnc(Nc3ccc(Oc4cccc(C(F)(F)F)c4)c(Cl)c3)c21 [TAK-285] class 0

Item: O=S(=O)(c1cccc2cnccc12)N1CCCNCC1 [FASUDIL] class 0

Item: C=CCn1c(=O)c2cnc(Nc3ccc(N4CCN(C)CC4)cc3)nc2n1-c1cccc(C(C)(C)O)n1 [ADAVOSERTIB] class 0

Item: Cc1c(Cn2c(C)nc3c(C(=O)O)cc(N4CCOCC4)cc32)cccc1C(F)(F)F [GSK-2636771] class 0

Item: O=C(Nc1ccc(OC(F)(F)F)cc1)c1sccc1NCc1ccnc2ccccc12 [OSI-930] class 0

Item: O=C(NOC[C@H](O)CO)c1ccc(F)c(F)c1Nc1ccc(I)cc1F [MIRDAMETINIB] class 0

Item: CC(C)CC(=O)Nc1[nH]nc2c1CN(C(=O)C1CCN(C)CC1)C2(C)C [PHA-793887] class 0

Item: COc1cc2ncnc3c2cc1OCCCCCN(C)Cc1ccc(Br)cc1N3 [JNJ-26483327] class 0

Item: CCc1nc(C(N)=O)c(Nc2ccc(N3CCC(N4CCN(C)CC4)CC3)c(OC)c2)nc1NC1CCOCC1 [GILTERITINIB] class 1

Item: C#Cc1cccc(Nc2ncnc3cc4c(cc23)OCCOCCOCCO4)c1 [ICOTINIB] class 0

----------
Molecular target: Serine/threonine-protein kinase TAO2 (Homo sapiens, UniProt Q9UL54); note: in the data inactive means no Kd found up to 30 µM
Sequence (Q9UL54 whole entry): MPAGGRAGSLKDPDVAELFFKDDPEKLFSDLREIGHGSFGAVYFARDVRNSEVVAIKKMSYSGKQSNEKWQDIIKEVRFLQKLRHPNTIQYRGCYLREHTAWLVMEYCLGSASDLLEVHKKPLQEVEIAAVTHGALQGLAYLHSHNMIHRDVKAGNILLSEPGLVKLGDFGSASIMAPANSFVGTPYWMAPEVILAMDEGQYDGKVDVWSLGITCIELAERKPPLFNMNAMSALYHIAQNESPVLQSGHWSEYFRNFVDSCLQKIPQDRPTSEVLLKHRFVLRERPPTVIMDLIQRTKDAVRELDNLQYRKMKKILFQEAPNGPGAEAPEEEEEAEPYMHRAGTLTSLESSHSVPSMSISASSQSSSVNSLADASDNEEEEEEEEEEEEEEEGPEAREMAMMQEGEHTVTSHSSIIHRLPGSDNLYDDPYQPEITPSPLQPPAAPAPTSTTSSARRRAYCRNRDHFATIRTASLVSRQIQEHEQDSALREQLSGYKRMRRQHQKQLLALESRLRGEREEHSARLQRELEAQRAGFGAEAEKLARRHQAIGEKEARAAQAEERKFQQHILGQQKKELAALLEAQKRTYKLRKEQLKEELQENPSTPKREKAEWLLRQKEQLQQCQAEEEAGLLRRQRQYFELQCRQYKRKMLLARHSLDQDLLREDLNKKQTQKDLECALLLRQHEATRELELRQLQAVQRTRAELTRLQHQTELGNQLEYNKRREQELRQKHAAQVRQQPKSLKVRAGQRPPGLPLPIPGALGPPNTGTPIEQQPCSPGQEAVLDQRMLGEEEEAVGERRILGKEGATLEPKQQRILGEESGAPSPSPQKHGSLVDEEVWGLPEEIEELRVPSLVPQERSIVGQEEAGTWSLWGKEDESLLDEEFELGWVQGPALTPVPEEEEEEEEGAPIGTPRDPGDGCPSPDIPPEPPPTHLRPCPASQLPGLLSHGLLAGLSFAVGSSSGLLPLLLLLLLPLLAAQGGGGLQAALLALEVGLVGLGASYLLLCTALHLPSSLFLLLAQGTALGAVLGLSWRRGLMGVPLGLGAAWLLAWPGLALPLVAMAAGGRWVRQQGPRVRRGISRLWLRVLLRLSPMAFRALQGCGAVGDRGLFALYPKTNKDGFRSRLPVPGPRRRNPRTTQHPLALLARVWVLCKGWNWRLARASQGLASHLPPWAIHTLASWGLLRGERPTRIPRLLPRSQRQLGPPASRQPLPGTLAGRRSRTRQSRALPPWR
The source made the active and inactive calls.
Give one outcome, nothing more. List: class 1 (active), class 0 (inactive)

Worked set:
# fetch the recorded call for Cc1cc(C(=O)Nc2cc(Oc3ccc4nc(NC(=O)C5CC5)cn4n3)ccc2C)n(C)n1 [TAK-593] here class 0

Item: CCc1nc(C(N)=O)c(Nc2ccc(N3CCC(N4CCN(C)CC4)CC3)c(OC)c2)nc1NC1CCOCC1 [GILTERITINIB] class 1

Item: O=C(NOC[C@H](O)CO)c1ccc(F)c(F)c1Nc1ccc(I)cc1F [MIRDAMETINIB] class 0

Item: CC(C)(O)CC(=O)NCCn1ccc2ncnc(Nc3ccc(Oc4cccc(C(F)(F)F)c4)c(Cl)c3)c21 [TAK-285] class 0

Item: O=S(=O)(c1cccc2c(O)nccc12)N1CCCNCC1 [HYDROXYFASUDIL] class 0

Continuing:
# fetch the recorded call for CN1CCN(c2nc(C3=C(c4c[nH]c5ccccc45)C(=O)NC3=O)c3ccccc3n2)CC1 [SOTRASTAURIN] here class 0

Item: O[C@H]1CC[C@H](Nc2ncc3nc(Nc4c(F)cc(F)cc4F)n([C@H]4CCOC4)c3n2)CC1 [TANZISERTIB] class 0

Item: CNC(=O)c1ccc(Nc2ncc(C(F)(F)F)c(NCc3nccnc3N(C)S(C)(=O)=O)n2)cc1 [DEFACTINIB] class 0

Item: C[C@@H]1COC(Nc2ccc3ncnc(Nc4ccc(OCc5nccs5)c(Cl)c4)c3c2)=N1 [VARLITINIB] class 0

Item: Cc1cc(Nc2nc(N[C@@H](C)c3ncc(F)cn3)ncc2Cl)n[nH]1 [AZD-1480] class 0

Item: C=CC(=O)Nc1cc(Nc2nccc(-c3cn(C)c4ccccc34)n2)c(OC)cc1N(C)CCN(C)C [OSIMERTINIB] class 0

Item: Cc1ccc(C(=O)Nc2ccc(Oc3cc4cnn(C)c4cc3-c3cn[nH]c3)c(F)c2)c(=O)n1-c1ccc(F)cc1 [MERESTINIB] class 0

Item: CCc1cc2c(cc1N1CCC(N3CCOCC3)CC1)C(C)(C)c1[nH]c3cc(C#N)ccc3c1C2=O [ALECTINIB] class 0
